- Test system: PC-3
- ASSAY_NOTES: Cytotoxic activity against human PC3 cells assessed as reduction in cell viability after 72 hrs by SRB assay
- Format: functional, cell-based
- ASSAY_SETUP: PC-3, 72 h
IC50 less than 60 µM is met; IC50 greater than or equal to 60 µM is not met.

Here's what some known entries look like.
1. C=C1C(=O)CC[C@]2(C)c3cccc(OC)c3CC[C@@H]12 ... met
2. C=CCc1ccc2c(c1O)C(=O)C[C@H]1C3=C(CC[C@]21C)C(=O)OC3 ... not met
3. CC(C)(C)[Si](C)(C)O[C@@H]1CC[C@]2(C)c3ccccc3CC[C@H]2[C@H]1CO ... not met
4. COc1cccc2c1CC[C@H]1[C@H]3COC(=O)[C@@]3(O)C(=O)C[C@]21C ... not met
5. COc1cccc2c1CC[C@H]1[C@H]3COC(=O)C3=CC[C@]21C ... not met
6. COC(=O)[C@]1(C)CCC[C@]2(C)c3cc([N+](=O)[O-])c(C(C)C)cc3CC[C@@H]12 ... not met
7. COc1c(C(C)C)ccc2c1CC[C@H]1C(=O)CCC[C@]21CO[N+](=O)[O-] ... not met

# input for lookup
Challenge: Please state whether IC50 is below 60 µM for "COc1c(C(C)C)ccc2c1CC[C@H]1C3=C(CC[C@]21C)C(=O)OC3"
Response given: met
